study-system: EGFR L858R/T790M/C797S (Homo sapiens, UniProt P00533, C797S/L858R/T790M)
Sequence (P00533 25-1210 T790M/C797S/L858R): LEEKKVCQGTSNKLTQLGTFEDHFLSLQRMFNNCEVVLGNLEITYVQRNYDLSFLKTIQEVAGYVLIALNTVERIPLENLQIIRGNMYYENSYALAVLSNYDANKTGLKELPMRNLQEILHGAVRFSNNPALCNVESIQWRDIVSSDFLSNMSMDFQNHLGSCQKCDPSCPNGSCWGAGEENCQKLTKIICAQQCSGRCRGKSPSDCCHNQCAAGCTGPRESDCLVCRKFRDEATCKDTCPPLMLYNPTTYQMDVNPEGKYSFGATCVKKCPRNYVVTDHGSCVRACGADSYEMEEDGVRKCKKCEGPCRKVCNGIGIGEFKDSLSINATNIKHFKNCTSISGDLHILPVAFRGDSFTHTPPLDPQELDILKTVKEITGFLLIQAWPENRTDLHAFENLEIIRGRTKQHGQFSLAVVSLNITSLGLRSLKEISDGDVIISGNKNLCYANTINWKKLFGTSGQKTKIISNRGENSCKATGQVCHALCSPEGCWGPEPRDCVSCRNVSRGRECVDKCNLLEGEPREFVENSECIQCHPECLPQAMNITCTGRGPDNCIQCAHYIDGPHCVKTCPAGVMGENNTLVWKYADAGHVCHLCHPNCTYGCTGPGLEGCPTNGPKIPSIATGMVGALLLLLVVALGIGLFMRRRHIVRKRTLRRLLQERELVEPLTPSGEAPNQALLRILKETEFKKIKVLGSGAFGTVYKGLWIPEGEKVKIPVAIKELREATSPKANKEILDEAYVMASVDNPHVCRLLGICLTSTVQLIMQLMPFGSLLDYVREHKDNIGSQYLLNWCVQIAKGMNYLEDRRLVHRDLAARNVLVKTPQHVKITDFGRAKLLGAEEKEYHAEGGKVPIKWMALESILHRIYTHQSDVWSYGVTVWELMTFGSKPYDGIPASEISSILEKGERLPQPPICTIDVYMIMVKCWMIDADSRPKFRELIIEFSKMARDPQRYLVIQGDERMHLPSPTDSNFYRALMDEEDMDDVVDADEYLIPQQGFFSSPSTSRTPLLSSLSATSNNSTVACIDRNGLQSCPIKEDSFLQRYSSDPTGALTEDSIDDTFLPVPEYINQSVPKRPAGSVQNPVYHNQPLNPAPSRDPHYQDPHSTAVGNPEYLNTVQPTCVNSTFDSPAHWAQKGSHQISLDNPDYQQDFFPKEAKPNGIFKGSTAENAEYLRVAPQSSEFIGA
protocol-text: Biochemical EGFR kinase assay (Lance Ultra TR-FRET), triple mutant L858R/T790M/C797S
assay-conditions: Km ATP; read-out: IC50 L858R/T790M/C797S (nM) Km ATP
property-label: IC50 (nM)

# compound, IC50 [nM]
data = [
    ("C[C@]1(O)CC[C@@H](Nc2cc(Nc3ccnc(-c4cnn(CC(F)(F)F)c4)n3)ncc2-c2ccn(C(F)F)n2)CC1 [Example 137]", 0.2),
]

1 = CN[C@H]1CC[C@@H](Oc2cc(Nc3ccnc(-c4cnn(S(=O)(=O)C5CC5)c4)n3)ncc2-c2cnn(C(F)F)c2)CC1 [Example 69]
2 = Cc1cn(-c2cnc(Nc3ccnc(-c4cnn(S(=O)(=O)C5CC5)c4)n3)cc2N[C@H]2CC[C@@](C)(O)CC2)nc1C(F)(F)F [Example 186]
3 = Cc1nn(CC(F)(F)F)cc1-c1nccc(Nc2cc(N[C@H]3CC[C@@H](CCO)CC3)c(-c3ccn(C(F)F)n3)cn2)n1 [Example 326]
4 = CC(C)(O)[C@H]1CC[C@@H](Nc2cc(Nc3ccnc(-c4cnn(CC(F)F)c4)n3)ncc2-c2ccn(C(F)F)n2)CC1 [Example 148]
// query Sort entries by IC50 from minimum to maximum value. Form entry: labels listed in requested order.
// result 1, 2, 3, 4

I = O=S(=O)(C1CC1)n1cc(-c2nccc(Nc3cc(N[C@H]4CC[C@@H](CO)CC4)c(-c4cc5n(n4)CCCC5)cn3)n2)cn1 [Example 60]
II = Cn1ccc(-c2cnc(Nc3ccnc(-c4cnn(S(=O)(=O)C5CC5)c4)n3)cc2NC2CCCC(NCCF)C2)n1 (centres unmarked) [Example 225]
// query Could you tell me which of I and II has the lower IC50 reading? Write down the label attached to your selection.
// result II
(II: 0.2 nM, I: 0.5 nM)
